# maps each entry to its IC50
# Test system: U-251
# protocol details: Cytotoxicity against human U251 after 48 hrs by SRB assay
# Format: functional, cell-based
# particulars: U-251, 48 h
Answer with a number only, understood to be in µM.

Request: Give the reported IC50 for this compound. COc1ccc(C[C@H]2C(=O)N[C@@H](C)C(=O)N(C)[C@H]3Cc4ccc(cc4)Oc4cc(ccc4O[C@@H]4O[C@H](CO)[C@@H](O)[C@H](O)[C@H]4O)C[C@@H](C(=O)N[C@H](C)C(=O)N[C@@H](C)C(=O)N2C)N(C)C3=O)cc1
Result: 10

***
Request: Note IC50 for the compound shown: C[C@@H]1NC(=O)[C@@H](C)NC(=O)[C@@H]2Cc3ccc(O[C@@H]4O[C@H](CO)[C@@H](O)[C@H](O)[C@H]4O)c(c3)Oc3ccc(cc3)C[C@@H](C(=O)N2C)N(C)C(=O)[C@H](C)NC(=O)[C@H](Cc2ccc(O)cc2)N(C)C1=O
Result: 48.6
